Entries and their measured pIC50 follow.
- subject-of-test: RARα (Homo sapiens)
- Sequence (P10276 whole entry): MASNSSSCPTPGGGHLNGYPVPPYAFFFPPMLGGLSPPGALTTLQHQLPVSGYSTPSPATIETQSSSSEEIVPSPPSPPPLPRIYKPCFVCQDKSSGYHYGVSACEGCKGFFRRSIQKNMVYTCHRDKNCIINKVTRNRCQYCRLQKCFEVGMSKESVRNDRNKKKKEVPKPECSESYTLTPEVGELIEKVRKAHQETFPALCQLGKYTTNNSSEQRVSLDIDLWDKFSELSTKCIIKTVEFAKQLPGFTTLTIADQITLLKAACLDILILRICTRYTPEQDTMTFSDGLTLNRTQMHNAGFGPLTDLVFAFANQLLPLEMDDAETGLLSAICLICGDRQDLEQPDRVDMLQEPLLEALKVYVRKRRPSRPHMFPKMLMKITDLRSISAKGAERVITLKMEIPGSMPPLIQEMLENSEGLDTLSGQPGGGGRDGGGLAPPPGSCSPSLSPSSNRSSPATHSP
- assay-protocol: Binding, RARα (ligand binding assay)
- setup-conditions: Table III
In textbook form, pIC50 equals minus log to base ten of the concentration in mol/L.

[[record]]
compound = "CCCCCC(=O)c1cc2c(cc1/C=C/c1ccc(C(=O)O)cc1)C(C)(C)CCC2(C)C [RAR Agonist 5]"
readout_label = "pIC50"
experimental_result = 5.64


Task: # return pIC50 for CC1(C)CCOc2ccc(C(=O)/C=C/c3ccc(C(=O)O)cc3)cc21 [RAR Agonist 6] , test system: RARα (Homo sapiens)
Output: 5.51

---

- subject-of-test: RARγ (Homo sapiens, UniProt P13631)
- Sequence (P13631 whole entry): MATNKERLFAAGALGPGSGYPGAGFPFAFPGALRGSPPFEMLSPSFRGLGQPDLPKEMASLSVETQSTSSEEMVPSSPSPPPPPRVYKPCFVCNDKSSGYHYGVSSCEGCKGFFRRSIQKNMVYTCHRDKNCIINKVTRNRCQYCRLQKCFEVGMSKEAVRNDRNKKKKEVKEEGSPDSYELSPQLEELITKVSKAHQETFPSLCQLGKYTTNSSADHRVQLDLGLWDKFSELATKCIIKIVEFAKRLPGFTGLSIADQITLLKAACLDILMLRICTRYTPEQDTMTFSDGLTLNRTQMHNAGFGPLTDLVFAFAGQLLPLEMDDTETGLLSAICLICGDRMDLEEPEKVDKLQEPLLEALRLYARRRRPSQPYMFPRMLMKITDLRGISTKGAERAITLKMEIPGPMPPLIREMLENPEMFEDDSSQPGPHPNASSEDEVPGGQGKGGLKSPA
- assay-protocol: Binding, RARγ (ligand binding assay)
- setup-conditions: Table II
Measured IC50 by item
# number only, unit nM dropped from output

[[record]]
molecule = "CC(C)COc1ccc(-c2ccc3cc(C(=O)O)ccc3c2)cc1C(C)(C)C [RAR Agonist 2, reference compound]"
subject_of_test = "RARγ (Homo sapiens, UniProt P13631)"
value_units = "nM"
experimental_result = 300

[[record]]
molecule = "CCCCCCc1cc2c(cc1/C=C/c1ccc(C(=O)O)cc1)C(C)(C)CCC2(C)C"
subject_of_test = "RARγ (Homo sapiens, UniProt P13631)"
value_units = "nM"
experimental_result = 210


Continue with the next molecule.
Task: Provide IC50 value for the following molecule: O=C(O)c1ccc(NC(=O)c2cc(C(F)(F)F)cc(C(F)(F)F)c2)cc1 [RAR Agonist 1, reference compound]
Output: 10000
